Quick list: relative viability per entry.
# Test system: LCLC-103H
# test.details: relative viability (nuclei count vs DMSO), 5 days (fraction); higher = more cells survive
# run.parameters: first compound 0.5 µM
measured.endpoint: relative viability

COc1cc2nccc(Oc3ccc(NC(=O)Nc4cc(C)on4)c(Cl)c3)c2cc1OC [Tivozanib] + Nc1ncn([C@H]2C[C@H](O)[C@@H](CO)O2)c(=O)n1 [Decitabine] (partner 2 µM) = 0.744
Nc1ccn([C@@H]2O[C@H](CO)[C@@H](O)[C@@H]2O)c(=O)n1 [Cytarabine] + C[C@]1(O)C[C@@H](c2nc(-c3ccc4ccc(-c5ccccc5)nc4c3)c3c(N)nccn32)C1 [Linsitinib] (partner 1 µM) = 1.18
COc1cc2nccc(Oc3ccc(NC(=O)Nc4cc(C)on4)c(Cl)c3)c2cc1OC [Tivozanib] + O=C(c1cc(Cc2n[nH]c(=O)c3ccccc23)ccc1F)N1CCN(C(=O)C2CC2)CC1 [Olaparib] (partner 8 µM) = 0.853

* * *

Listing of entries alongside the reported relative viability.
# Tested on: NCI-H1734
# test.details: relative viability (nuclei count vs DMSO), 5 days (fraction); higher = more cells survive
# run.parameters: first compound 0.01581 µM
measured.endpoint: relative viability

COc1cc2nccc(Oc3ccc(NC(=O)Nc4cc(C)on4)c(Cl)c3)c2cc1OC [Tivozanib] + CC(=O)c1c(C)c2cnc(Nc3ccc(N4CCNCC4)cn3)nc2n(C2CCCC2)c1=O [Palbociclib] (partner 0.5 µM) = 0.34
COc1cc2nccc(Oc3ccc(NC(=O)Nc4cc(C)on4)c(Cl)c3)c2cc1OC [Tivozanib] + CC1(C)CCC(c2ccc(Cl)cc2)=C(CN2CCN(c3ccc(C(=O)NS(=O)(=O)c4ccc(N[C@H](CCN5CCOCC5)CSc5ccccc5)c(S(=O)(=O)C(F)(F)F)c4)cc3)CC2)C1 [Navitoclax] (partner 0.5 µM) = 0.804

* * *

# System: LCLC-103H
# test.details: relative viability (nuclei count vs DMSO), 5 days (fraction); higher = more cells survive
# run.parameters: first compound 0.000632 µM
molecules and their reported relative viability
measured.endpoint: relative viability

CC(=O)O[C@@]12CO[C@@H]1C[C@H](O)[C@@]1(C)C(=O)[C@H](O)C3=C(C)[C@@H](OC(=O)[C@H](O)[C@@H](NC(=O)OC(C)(C)C)c4ccccc4)C[C@@](O)([C@@H](OC(=O)c4ccccc4)[C@H]21)C3(C)C [Docetaxel] + Nc1nc2[nH]cc(CCc3ccc(C(=O)N[C@@H](CCC(=O)O)C(=O)O)cc3)c2c(=O)[nH]1 [Pemetrexed] (partner 0.2 µM) = 0.54
CC(=O)O[C@@]12CO[C@@H]1C[C@H](O)[C@@]1(C)C(=O)[C@H](O)C3=C(C)[C@@H](OC(=O)[C@H](O)[C@@H](NC(=O)OC(C)(C)C)c4ccccc4)C[C@@](O)([C@@H](OC(=O)c4ccccc4)[C@H]21)C3(C)C [Docetaxel] + Cc1nc(Nc2ncc(C(=O)Nc3c(C)cccc3Cl)s2)cc(N2CCN(CCO)CC2)n1 [Dasatinib] (partner 0.075 µM) = 0.456
CC(=O)O[C@@]12CO[C@@H]1C[C@H](O)[C@@]1(C)C(=O)[C@H](O)C3=C(C)[C@@H](OC(=O)[C@H](O)[C@@H](NC(=O)OC(C)(C)C)c4ccccc4)C[C@@](O)([C@@H](OC(=O)c4ccccc4)[C@H]21)C3(C)C [Docetaxel] + C[C@]1(O)C[C@@H](c2nc(-c3ccc4ccc(-c5ccccc5)nc4c3)c3c(N)nccn32)C1 [Linsitinib] (partner 1 µM) = 1.18
CC(=O)O[C@@]12CO[C@@H]1C[C@H](O)[C@@]1(C)C(=O)[C@H](O)C3=C(C)[C@@H](OC(=O)[C@H](O)[C@@H](NC(=O)OC(C)(C)C)c4ccccc4)C[C@@](O)([C@@H](OC(=O)c4ccccc4)[C@H]21)C3(C)C [Docetaxel] + CC(=O)c1c(C)c2cnc(Nc3ccc(N4CCNCC4)cn3)nc2n(C2CCCC2)c1=O [Palbociclib] (partner 0.5 µM) = 0.532
CC(=O)O[C@@]12CO[C@@H]1C[C@H](O)[C@@]1(C)C(=O)[C@H](O)C3=C(C)[C@@H](OC(=O)[C@H](O)[C@@H](NC(=O)OC(C)(C)C)c4ccccc4)C[C@@](O)([C@@H](OC(=O)c4ccccc4)[C@H]21)C3(C)C [Docetaxel] + O=C(c1cc(Cc2n[nH]c(=O)c3ccccc23)ccc1F)N1CCN(C(=O)C2CC2)CC1 [Olaparib] (partner 8 µM) = 0.803

Every entry's value here was drawn from the supplement of paper PMC10307832.
